- System under test: BaF3 cell lines stably transfected with kinase EGFR Del (Homo sapiens, UniProt P00533, cells depend on it, form not given)
- Sequence (P00533 with tags, fused parts or gaps DEL746-750): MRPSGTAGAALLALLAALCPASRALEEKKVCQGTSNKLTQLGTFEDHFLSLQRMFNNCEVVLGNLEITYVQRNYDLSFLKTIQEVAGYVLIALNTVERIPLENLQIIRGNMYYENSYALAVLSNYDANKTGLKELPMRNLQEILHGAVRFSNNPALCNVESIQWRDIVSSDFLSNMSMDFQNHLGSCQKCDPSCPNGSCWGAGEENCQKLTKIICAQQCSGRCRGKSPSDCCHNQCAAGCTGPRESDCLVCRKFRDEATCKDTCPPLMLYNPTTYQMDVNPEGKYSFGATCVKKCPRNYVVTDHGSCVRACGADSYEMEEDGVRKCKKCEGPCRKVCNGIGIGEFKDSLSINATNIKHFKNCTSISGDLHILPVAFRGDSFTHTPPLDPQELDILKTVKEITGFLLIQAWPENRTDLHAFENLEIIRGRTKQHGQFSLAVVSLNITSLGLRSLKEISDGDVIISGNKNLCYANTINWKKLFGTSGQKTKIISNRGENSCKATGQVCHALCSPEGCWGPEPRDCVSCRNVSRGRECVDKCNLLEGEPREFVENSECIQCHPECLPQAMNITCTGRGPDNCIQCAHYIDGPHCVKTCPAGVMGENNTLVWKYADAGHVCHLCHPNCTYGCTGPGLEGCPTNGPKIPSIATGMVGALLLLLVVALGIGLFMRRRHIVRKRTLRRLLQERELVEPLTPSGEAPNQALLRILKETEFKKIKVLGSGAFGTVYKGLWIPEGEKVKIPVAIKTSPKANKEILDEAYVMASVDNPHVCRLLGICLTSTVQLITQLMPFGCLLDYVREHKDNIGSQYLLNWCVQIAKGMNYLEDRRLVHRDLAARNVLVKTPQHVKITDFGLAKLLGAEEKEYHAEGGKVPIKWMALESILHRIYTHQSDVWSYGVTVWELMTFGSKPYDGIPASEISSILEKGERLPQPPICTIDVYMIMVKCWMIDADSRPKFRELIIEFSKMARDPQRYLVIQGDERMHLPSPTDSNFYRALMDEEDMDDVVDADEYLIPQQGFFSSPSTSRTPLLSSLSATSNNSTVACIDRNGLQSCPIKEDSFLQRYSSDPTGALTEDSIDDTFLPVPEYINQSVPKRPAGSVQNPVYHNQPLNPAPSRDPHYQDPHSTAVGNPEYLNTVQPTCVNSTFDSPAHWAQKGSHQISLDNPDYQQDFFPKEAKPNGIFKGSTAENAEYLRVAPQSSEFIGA
- Assay text: Growth inhibition of BaF3 cell line stably transfected with kinase EGFR Del (MTS)
- Type: cell-based
- Settings: 48 h, read-out: growth inhibitory activity IC50, Del
Listed here are compounds together with their documented GI50.

# Compound, GI50
measured = [
    ("C=Cc1cnc(Nc2cc(F)c(N3CCC(N4CCN(C)CC4)CC3)c(F)c2)nc1Nc1ccc2nccnc2c1S(=O)(=O)NC", "50 to 500 nM"),
]

Which measured GI50 value corresponds to CCc1cc(Nc2ncc(C3=CCCC3)c(Nc3ccc4nccnc4c3P(C)(C)=O)n2)c(OC)cc1N1CCC(N2CCN(C)CC2)CC1 ? ≤ 50 nM

Which measured GI50 value corresponds to C=Cc1cnc(Nc2cn(CC)nc2C)nc1Nc1ccc2nccnc2c1N(C)S(C)(=O)=O [II-67] ? 50 to 500 nM

Which measured GI50 value corresponds to C=Cc1cnc(Nc2ccn(CC)n2)nc1Nc1ccc2nccnc2c1N(C)S(C)(=O)=O ? 50 to 500 nM

Which measured GI50 value corresponds to CCc1cc(Nc2ncc(/C=C/C3CC3)c(Nc3ccc4nccnc4c3P(C)(C)=O)n2)c(OC)cc1N1CCC(N2CCN(C)CC2)CC1 ? ≤ 50 nM

---

- System under test: BaF3 cell lines stably transfected with kinase EGFR Del (Homo sapiens, UniProt P00533, cells depend on it, form not given)
- Assay text: Growth inhibition of BaF3 cell line stably transfected with kinase EGFR Del (MTS)
- Assay type: cell-based
- Settings: 48 h, read-out: growth inhibitory activity IC50, Del
- Experimental: Biological Activity Assay: Growth Inhibitory Activity of Compounds on Cell Lines Stably Transfected with Kinase The activity of compounds against various mutants of kinase EGFR was evaluated by their effect of inhibiting growth of BaF3 cell lines stably transfected with kinase. […] 4) IC50 calculation: The semi-inhibitory concentration of the compounds acting on cells was calculated using GradPad Prism 5 software according to the measured cell growth inhibition rate.
Quantity: GI50

These recorded examples may help you get a feel for the data.
# Compound, GI50
rows = [
    ("C=Cc1cnc(Nc2ccc(N3CCC(N4CCN(C)CC4)CC3)c(CC)c2)nc1Nc1ccc2nccnc2c1N(C)S(C)(=O)=O", "≤ 50 nM"),
    ("C=Cc1cnc(Nc2ccc3c(c2)C(C)CN(C)CC3)nc1Nc1ccc2nccnc2c1N(C)S(C)(=O)=O (stereo not drawn)", "≤ 50 nM"),
    ("C=Cc1cnc(Nc2ccc(N3CCC(N4CCN(C)CC4)CC3)cc2OC)nc1Nc1ccc2nccnc2c1S(=O)(=O)C(C)C", "500 to 2500 nM"),
]

Which measured GI50 value corresponds to C=Cc1cnc(Nc2cc(CC)c(N3CCC(N(C)C)CC3)cc2OC)nc1Nc1ccc2nccnc2c1S(=O)(=O)NC ? 50 to 500 nM

Which measured GI50 value corresponds to C=Cc1cnc(Nc2ccc(N3CCC(N4CCN(C)CC4)CC3)cc2OC)nc1Nc1ccc2nccnc2c1S(=O)(=O)NC ? 500 to 2500 nM

---

- System under test: BaF3 cell lines stably transfected with kinase EGFR Del/T790M/C797S (Homo sapiens, UniProt P00533, T790M/C797S, cells depend on it, form not given)
- Sequence (P00533 with tags, fused parts or gaps DEL746-750/T790M/C797S, form open): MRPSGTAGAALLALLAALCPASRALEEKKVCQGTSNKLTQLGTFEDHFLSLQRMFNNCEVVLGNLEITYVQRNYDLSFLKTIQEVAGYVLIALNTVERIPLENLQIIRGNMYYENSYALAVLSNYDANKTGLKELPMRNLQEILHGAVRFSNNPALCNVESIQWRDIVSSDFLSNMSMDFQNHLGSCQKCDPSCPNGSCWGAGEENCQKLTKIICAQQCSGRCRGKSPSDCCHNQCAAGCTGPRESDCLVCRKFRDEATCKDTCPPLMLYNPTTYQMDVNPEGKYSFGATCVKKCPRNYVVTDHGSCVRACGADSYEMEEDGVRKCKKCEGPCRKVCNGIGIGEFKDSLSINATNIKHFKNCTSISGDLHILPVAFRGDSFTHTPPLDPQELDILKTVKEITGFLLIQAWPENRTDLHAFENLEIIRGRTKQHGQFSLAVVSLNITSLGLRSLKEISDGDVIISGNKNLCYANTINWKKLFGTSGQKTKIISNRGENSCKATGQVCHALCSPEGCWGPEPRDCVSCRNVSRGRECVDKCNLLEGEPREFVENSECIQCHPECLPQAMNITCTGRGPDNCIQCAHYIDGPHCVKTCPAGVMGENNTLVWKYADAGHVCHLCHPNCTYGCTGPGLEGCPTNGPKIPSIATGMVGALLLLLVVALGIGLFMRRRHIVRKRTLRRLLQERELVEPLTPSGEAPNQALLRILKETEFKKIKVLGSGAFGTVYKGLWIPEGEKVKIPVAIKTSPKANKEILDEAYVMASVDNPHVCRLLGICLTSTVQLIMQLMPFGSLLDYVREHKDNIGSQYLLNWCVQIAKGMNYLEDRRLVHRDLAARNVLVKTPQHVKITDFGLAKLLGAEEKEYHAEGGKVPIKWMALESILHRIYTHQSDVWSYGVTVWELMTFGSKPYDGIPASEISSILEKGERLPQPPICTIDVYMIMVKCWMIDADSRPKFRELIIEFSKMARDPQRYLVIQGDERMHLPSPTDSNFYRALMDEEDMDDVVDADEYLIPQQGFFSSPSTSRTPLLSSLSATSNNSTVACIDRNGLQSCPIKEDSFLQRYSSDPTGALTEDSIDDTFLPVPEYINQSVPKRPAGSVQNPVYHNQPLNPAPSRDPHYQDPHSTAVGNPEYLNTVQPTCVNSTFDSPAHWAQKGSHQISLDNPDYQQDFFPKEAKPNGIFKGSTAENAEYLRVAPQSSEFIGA
- Assay text: Growth inhibition of BaF3 cell line stably transfected with kinase EGFR Del/T790M/C797S (MTS)
- Format: cell-based
- Settings: 48 h, read-out: growth inhibitory activity IC50, Del/T790M/C797S
Quantity: GI50

These recorded examples may help you get a feel for the data.
# Compound, GI50
rows = [
    ("C=Cc1cnc(Nc2cc(C)c(N3CCC(N4CCN(C)CC4)CC3)cc2OC)nc1Nc1ccc2nccnc2c1NS(C)(=O)=O", "50 to 500 nM"),
    ("C=Cc1cnc(Nc2cc(CC)c(N3CCC(N4CCN(C)CC4)CC3)cc2OC)nc1Nc1ccc2nccnc2c1N(C)S(=O)(=O)C(F)(F)F", "50 to 500 nM"),
    ("C=Cc1cnc(Nc2cc(CC)c(N3CCC(N4CCN(C)CC4)CC3)nc2OC)nc1Nc1ccc2nccnc2c1NS(C)(=O)=O", "50 to 500 nM"),
    ("CCc1cc(Nc2ncc(/C=C/C3CC3)c(Nc3ccc4nccnc4c3N(C)S(C)(=O)=O)n2)c(OC)cc1N1CCC(N2CCN(C)CC2)CC1", "500 to 2500 nM"),
    ("C=Cc1cnc(Nc2cc3c(cc2F)CCN(C)C3)nc1Nc1ccc2nccnc2c1N(C)S(C)(=O)=O", "50 to 500 nM"),
    ("C=Cc1cnc(Nc2cc(CC)c(N3CCC(N4CCN(C)CC4)CC3)cc2OC)nc1Nc1ccc2nccnc2c1NS(=O)(=O)C(C)C", "50 to 500 nM"),
    ("C=Cc1cnc(Nc2cc(C)c(N3CCC(N4CCN(C)CC4)CC3)cc2OC)nc1Nc1ccc2nccnc2c1S(C)(=O)=O", "500 to 2500 nM"),
    ("C=Cc1cnc(Nc2cc(CC)c(N3CCC(N(C)C)C3)cc2OC)nc1Nc1ccc2nccnc2c1S(=O)(=O)NC (centres unmarked)", "50 to 500 nM"),
]

Which measured GI50 value corresponds to C=Cc1cnc(Nc2cc(CC)c(N3CCN(C)CC3)cc2OC)nc1Nc1ccc2nccnc2c1N(C)S(C)(=O)=O ? ≤ 50 nM

Which measured GI50 value corresponds to C=Cc1cnc(Nc2cc(CC)c(N3CCC(N4CCN(C)CC4)CC3)cc2OC)nc1Nc1ccc2nccnc2c1P(C)(C)=O ? ≤ 50 nM

Which measured GI50 value corresponds to C=Cc1cnc(Nc2cc(CC)c(N3CCC(N4CCN(C)CC4)CC3)cc2OC(F)(F)F)nc1Nc1ccc2nccnc2c1P(C)(C)=O ? ≤ 50 nM

Which measured GI50 value corresponds to C=Cc1cnc(Nc2cc(C3CC3)c(N3CCC(N4CCN(C)CC4)CC3)cc2OC)nc1Nc1ccc2nccnc2c1S(=O)(=O)C(C)C ? 50 to 500 nM

Which measured GI50 value corresponds to C=Cc1cnc(Nc2ccc(N3CCC(N4CCN(C)CC4)CC3)cc2OC)nc1Nc1ccc2nccnc2c1S(=O)(=O)NC ? 500 to 2500 nM

Which measured GI50 value corresponds to C=Cc1cnc(Nc2cc(C)c(N3CCC(N4CCN(C)CC4)CC3)cc2OC)nc1Nc1ccc2nccnc2c1P(C)(C)=O ? ≤ 50 nM

---

Listed here are compounds together with their documented GI50.
- System under test: BaF3 cell lines stably transfected with kinase EGFR Del/T790M/C797S (Homo sapiens, UniProt P00533, T790M/C797S, cells depend on it, form not given)
- Assay text: Growth inhibition of BaF3 cell line stably transfected with kinase EGFR Del/T790M/C797S (MTS)
- Format: cell-based
- Settings: 48 h, read-out: growth inhibitory activity IC50, Del/T790M/C797S

Which measured GI50 value corresponds to C=Cc1cnc(Nc2ccc3c(c2)CN(C)CC3)nc1Nc1ccc2nccnc2c1N(C)S(C)(=O)=O ? 50 to 500 nM

Which measured GI50 value corresponds to C=Cc1cnc(Nc2cc(C3CC3)c(N3CCC(N4CCN(C)CC4)CC3)cc2OC)nc1Nc1ccc2nccnc2c1N(C)S(C)(=O)=O ? 50 to 500 nM

Which measured GI50 value corresponds to C=C(C)c1cnc(Nc2cnn(C)c2)nc1Nc1ccc2nccnc2c1N(C)S(C)(=O)=O ? ≤ 50 nM

Which measured GI50 value corresponds to C=Cc1cnc(Nc2ccc(N3CCC(N4CCN(C)CC4)CC3)c(CC)c2)nc1Nc1ccc2nccnc2c1P(C)(C)=O ? ≤ 50 nM

---

- System under test: BaF3 cell lines stably transfected with kinase EGFR L858R/T790M (Homo sapiens, UniProt P00533, T790M/L858R, cells depend on it)
- Sequence (P00533 whole entry T790M/L858R): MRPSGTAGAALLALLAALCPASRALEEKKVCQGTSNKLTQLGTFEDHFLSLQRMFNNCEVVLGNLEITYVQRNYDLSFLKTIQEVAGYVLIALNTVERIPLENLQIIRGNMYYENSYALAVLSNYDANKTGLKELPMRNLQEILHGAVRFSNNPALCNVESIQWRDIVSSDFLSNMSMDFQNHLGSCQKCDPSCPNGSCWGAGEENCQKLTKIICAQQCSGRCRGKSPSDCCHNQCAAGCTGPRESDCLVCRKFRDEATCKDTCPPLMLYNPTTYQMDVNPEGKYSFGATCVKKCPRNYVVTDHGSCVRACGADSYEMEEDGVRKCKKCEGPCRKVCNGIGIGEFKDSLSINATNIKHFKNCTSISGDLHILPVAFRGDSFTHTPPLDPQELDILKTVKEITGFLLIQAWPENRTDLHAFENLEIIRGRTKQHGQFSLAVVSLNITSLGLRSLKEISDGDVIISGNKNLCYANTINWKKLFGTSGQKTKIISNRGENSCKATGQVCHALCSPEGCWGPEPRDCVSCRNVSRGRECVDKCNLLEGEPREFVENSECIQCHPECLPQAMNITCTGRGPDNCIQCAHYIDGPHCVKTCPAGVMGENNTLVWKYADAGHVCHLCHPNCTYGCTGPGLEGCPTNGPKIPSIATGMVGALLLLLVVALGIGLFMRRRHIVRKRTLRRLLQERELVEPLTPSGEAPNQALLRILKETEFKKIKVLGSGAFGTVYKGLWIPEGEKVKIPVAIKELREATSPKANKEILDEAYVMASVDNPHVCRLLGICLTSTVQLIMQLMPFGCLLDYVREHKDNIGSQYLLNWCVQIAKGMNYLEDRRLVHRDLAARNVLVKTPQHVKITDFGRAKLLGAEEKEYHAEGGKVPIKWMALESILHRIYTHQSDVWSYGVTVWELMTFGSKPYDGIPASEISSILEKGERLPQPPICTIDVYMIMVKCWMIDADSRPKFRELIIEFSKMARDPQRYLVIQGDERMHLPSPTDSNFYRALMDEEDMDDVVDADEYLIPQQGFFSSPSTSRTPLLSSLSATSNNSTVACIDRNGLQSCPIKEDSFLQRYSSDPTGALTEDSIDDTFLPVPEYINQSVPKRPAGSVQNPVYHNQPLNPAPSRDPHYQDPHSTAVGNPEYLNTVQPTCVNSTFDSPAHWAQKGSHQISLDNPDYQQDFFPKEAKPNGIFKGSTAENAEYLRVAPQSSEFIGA
- Assay text: Growth inhibition of BaF3 cell line stably transfected with kinase EGFR L858R/T790M (MTS)
- Type: cell-based
- Settings: 48 h, read-out: growth inhibitory activity IC50, L858R/T790M
Listed here are compounds together with their documented GI50.

These recorded examples may help you get a feel for the data.
# Compound, GI50
measured = [
    ("C=C(C)c1cnc(Nc2ccc(N3CCC(N4CCN(C)CC4)CC3)nc2OC)nc1Nc1ccc2nccnc2c1P(C)(C)=O", "≤ 50 nM"),
    ("C=Cc1cnc(Nc2cc(C3CC3)c(N3CCC(N4CCN(C)CC4)CC3)cc2OC)nc1Nc1ccc2nccnc2c1S(=O)(=O)C(C)C", "50 to 500 nM"),
    ("C=C(C)c1cnc(Nc2cc(C)c(N3CCC(N4CCN(C)CC4)CC3)nc2OC)nc1Nc1ccc2nccnc2c1P(C)(C)=O", "50 to 500 nM"),
]

Now look at this entry.
Which measured GI50 value corresponds to C=Cc1cnc(Nc2cc(F)c(N3CCC(N4CCN(C)CC4)CC3)c(F)c2)nc1Nc1ccc2nccnc2c1S(C)(=O)=O ? 500 to 2500 nM
